// each record: one item and its GI50 for HCT-15

Molecule	Unit String	Value Modifier	GI50
NNC(=O)c1nnn(N)c1S	µM	>	100
COc1ccc2nc3ccc(OC)cc3c(SCCCl)c2c1	µM	=	12.7
COC(=O)Cc1cc(=O)n2c([nH]c3ccccc32)c1C#N	µM	>	100
NC(=S)N/N=C1\NC(=O)/C(=C/c2ccc3c(c2)OCO3)S1	µM	=	26.7
O=C1c2[nH]c3ccccc3c2CCN2CCCCC12 (centres undefined)	µM	=	31.9
O=C1OC(c2ccccc2)=N/C1=C\c1cn[nH]n1	µM	>	100
CC1(C)C=C(N2CCN(C3=CC(C)(C)NC(C)(C)C3)CC2)CC(C)(C)N1	µM	>	100
COc1ccc(NC(=O)CSc2nnc(Cc3ccccc3)o2)cc1	µM	>	100
CCNCCCNc1c2ccccc2nc2ccccc12	µM	=	0.366

====

system: U-251; assay: NCI tumour cell line growth inhibition, 48 h
Active and inactive are the calls of the source. Rule as the data show it: active = GI50 up to about 1.1 µM and inactive = higher.

Compound	Experimental Target	GI50
CCCCC(=O)Nc1ccc2cc(C(=O)OC)c(ON3C(=O)c4ccccc4C3=O)nc2n1	U-251	26.5 µM (inactive)
COC(=O)C1=C(c2cc(OC)c(OC)c(OC)c2)OC(c2cc(OC)c(OC)c(OC)c2)C1 (stereo not given)	U-251	20.5 µM (inactive)
COc1cc(C(=O)OC2CC34CCNC35CC(OC5(OC)C2O)c2cc3c(cc24)OCO3)ccc1O (stereo not given)	U-251	> 100 µM (inactive)
CC(C)(C)N(Cc1ccc2c(c1)OCO2)C(=O)/C=C\[S+]([O-])c1ccccc1 (stereo not given)	U-251	4.33 µM (inactive)
COc1cc(/C=C2\CCC(C)C3=C(c4cc(OC)c(OC)c(OC)c4)C(C#N)=C(N)OC32)cc(OC)c1OC (stereo not given)	U-251	3.08 µM (inactive)
COC(=O)C1CC2(c3ccccc3)C(=O)c3ccccc3N2O1 (stereo not given)	U-251	69.2 µM (inactive)
O=Cc1c2ccccc2n2ccc3c4ccccc4[nH]c3c12	U-251	> 10 µM (inactive)
Cc1ccccc1NC(=O)/C(=N/NC(=O)CC#N)C1C(=O)N(c2ccccc2)N=C1N (stereo not given)	U-251	> 100 µM (inactive)
c1ccc2c[n+](CCCC[n+]3ccc4ccccc4c3)ccc2c1	U-251	> 100 µM (inactive)
O=C1C(Cl)=C(OCCCl)C(=O)c2c(O)ccc(O)c21	U-251	14.3 µM (inactive)

====

system: KM12; experiment: NCI tumour cell line growth inhibition, 48 h
Calls of active or inactive are those of the source. Cut-off read from the data, not from the text of the source: active = GI50 up to about 1.1 µM and inactive = higher.

Compound	GI50
COc1cc(OC)c(CSCC(NC(=O)OCC2c3ccccc3-c3ccccc32)C(=O)O)c(OC)c1 (centres undefined)	> 10 µM (inactive)
C/C=C/c1cc(=O)c([C@@H]2OC(=O)c3cc(OC)cc(OC)c32)co1	31.6 µM (inactive)
COc1cc(C2C3=C(COC3=O)OC(C)(C)Oc3cc4c(cc32)OCO4)cc(OC)c1OC (centres undefined)	0.212 µM (active)
O=CC(=C(I)I)c1ccccc1	3.87 µM (inactive)
COc1cccc2c1NC(=O)Cc1c-2[nH]c2ccccc12	46.9 µM (inactive)
CCOC(=O)/C(=C\c1ccc(OCc2ccccc2)c(OC)c1)C(=O)c1ccccc1	19.5 µM (inactive)
O=CC1=C(C(=O)OC(c2ccccc2)c2ccccc2)N2C(=O)[C@@H](NC(=O)Cc3cccs3)[C@H]2SC1	91.2 µM (inactive)
CC(=O)N1CCN(c2ccc(OCC3COC(Cn4ccnc4)(c4ccc(Cl)cc4Cl)O3)cc2)CC1 (centres undefined)	30.6 µM (inactive)
CSc1ccc2c(c1)c(CCN)c(C)n2Cc1ccccc1Cl	1.82 µM (inactive)
